Values compiled from ChEMBL document CHEMBL1201862.

Test system: OVCAR-8
PROCEDURE TEXT: NCI tumour cell line growth inhibition, 48 h
Activity calls are given as the source filed them. No stated cut-off is given here; in the data, active = GI50 up to about 1.1 µM and inactive = higher. Non-standard residues stand in square brackets, D forms with d. Residues, ends and D or L forms follow the SMILES beside them. ξ: configuration not given here. *: point of attachment. NMeF = CN[C@@H](Cc1ccccc1)C(=O)O; NMeV = CN[C@H](C(=O)O)C(C)C; ξNMeV = CNC(C(=O)O)C(C)C; Boc = CC(C)(C)OC(=O)*; OBn = c1ccc(CO*)cc1
QUANTITY MEASURED: GI50

Sample CNC(=O)N(C)/N=N/CCCl — what was its GI50?
> 100 µM (inactive)

Sample S=C1SCN(Cc2ccco2)CN1c1ccc(Br)cc1 — what was its GI50?
23.3 µM (inactive)

Sample CC(C)C(C(=O)N(C)[C@H](C(=O)N1CCC[C@H]1C(=O)N(C)[C@@H](Cc1ccccc1)C(=O)OCc1ccccc1)C(C)C)N(C)C(=O)[C@@H](NC(=O)OC(C)(C)C)C(C)C (stereo not given in full) (Boc-V[ξNMeV][NMeV]P[NMeF]-OBn) — what was its GI50?
> 31.6 µM (inactive)

Sample COC(=O)C1=C(C(=O)OC)C2(C(=O)OC)OC1(OC)C(C1(C(=O)OC)C(C(=O)OC)=C1C(=O)OC)=C2C(=O)OC (stereo not given) — what was its GI50?
> 100 µM (inactive)

Sample CN1C(=O)C(C(N)=O)C2CC1(C)Oc1ccccc12 (stereo not given) — what was its GI50?
> 100 µM (inactive)

Sample O=[N+]([O-])C(=C(N1CCCCC1)N1CCCCC1)/C(Cl)=C(\Cl)Br — what was its GI50?
16.4 µM (inactive)

Sample O[C@@H]1C[C@H]2N3CC[C@@]2(c2cc4c(cc2C3)OCO4)[C@H]2O[C@@H]12 — what was its GI50?
> 100 µM (inactive)

Sample COc1ccc2oc(=N)c(C(N)=O)cc2c1 — what was its GI50?
> 100 µM (inactive)

Sample NC(=O)[N+](=CC(=S)Nc1ccccc1Cl)C(N)=O — what was its GI50?
> 100 µM (inactive)

Sample O=C1c2ccccc2C(=O)c2c(O)c(O)cc(O)c21 — what was its GI50?
55.5 µM (inactive)

Sample Cc1c2ccccc2c(=O)n2c(-c3ccccn3)cccc12 — what was its GI50?
> 100 µM (inactive)

Sample COc1cc2c(cc1OCCN1CCN(CCOc3cc4c(cc3OC)C(=O)N3CCC[C@H]3C=N4)CC1)N=C[C@@H]1CCCN1C2=O — what was its GI50?
35.3 µM (inactive)

Sample O=C(O)CCC/N=C(\C(=N\CCCC(=O)O)c1ccccc1)c1ccccc1 — what was its GI50?
> 100 µM (inactive)

Sample CO/N=C1\CCC2(O)C3Cc4ccc(O)c5c4C2(CCN3CC2CC2)[C@H]1O5 (stereo not given in full) — what was its GI50?
> 100 µM (inactive)

Sample COC(=O)C1=C(C(=O)OC)C2OC1c1cc3ccccc3cc12 — what was its GI50?
4.49 µM (inactive)

Sample CC1=C(Cl)C[C@@H](/C(C)=C\Cl)O[C@@]1(O)C(Br)Br — what was its GI50?
32.1 µM (inactive)

Sample CC(C)=c1sc(=C(C)C)c2c1=NC(C)(C)N=2 — what was its GI50?
94 µM (inactive)

Sample COC(=O)c1nc(N)nc(O)c1CCCCCc1c(O)nc(N)nc1C(=O)OC — what was its GI50?
> 50 µM (inactive)

Sample CC1(c2ccccc2)CC(c2cccc([N+](=O)[O-])c2)=NO1 (stereo not given) — what was its GI50?
> 100 µM (inactive)

Sample O=[N+]([O-])c1cc2ccc(N(CCO)CCO)nc2nc1N(CCO)CCO — what was its GI50?
> 100 µM (inactive)

Sample COC(=O)C1=Cc2cn(S(=O)(=O)c3ccc(C)cc3)c3cccc(c23)C(C=C(C)C)N1C(C)=O (stereo not given) — what was its GI50?
84.9 µM (inactive)

Sample CC1(C)OP(=O)(c2ccccc2)C=C1Br (stereo not given) — what was its GI50?
> 100 µM (inactive)

Sample COc1cc(C2SCC(=O)N2c2ccc(NC(C)=O)cc2)cc(OC)c1OC (stereo not given) — what was its GI50?
77.1 µM (inactive)

Sample O=[N+]([O-])/C(C(Cl)=C(Cl)Cl)=C(/Cl)Sc1ccccc1 — what was its GI50?
0.255 µM (active)

Sample COc1ccc(Cc2c(N)[nH]c(=O)n(C)c2=O)cc1 — what was its GI50?
> 100 µM (inactive)

Sample O=NN(CCCl)C(=O)N[C@H]1CC[C@@H](CC(=O)O)CC1 — what was its GI50?
> 100 µM (inactive)

Sample CN1CN(c2ccccc2)C2(CCN(CCC3COc4ccccc4O3)CC2)C1=O (stereo not given) — what was its GI50?
32.9 µM (inactive)

Sample Fc1ccc2nc3n(c2c1)C(c1c(F)cccc1F)SC3 (stereo not given) — what was its GI50?
65.6 µM (inactive)

Sample COc1cc(C(CC(OC)OC)=C(C#N)C#N)cc(OC)c1OC — what was its GI50?
20 µM (inactive)

Sample COC(=O)C1(Cc2ccc3c(c2)CCC3)Cc2ccccc2C1O (stereo not given) — what was its GI50?
18.6 µM (inactive)

----------
Test system: SW-620
PROCEDURE TEXT: NCI tumour cell line growth inhibition, 48 h
The source made the active and inactive calls. No stated cut-off is given here; in the data, active = GI50 up to about 1.1 µM and inactive = higher.
Return exactly one item of active, inactive

What call does the record list for COc1ccc(CC2c3cc(OC)c(OC)c(OC)c3CC[N+]2(C)C)cc1Oc1ccc(CC2c3cc4c(c(OC)c3CCN2C)OCO4)cc1 (stereo not drawn) ?
inactive

What call does the record list for C[C@]12Cc3conc3C(O)=C1CC[C@@H]1C2CC[C@@]2(C)C1CC[C@]2(C)O (stereo partly drawn) ?
inactive

What call does the record list for C/C(CC(=O)Nc1cc(Cl)c(Cl)cc1Cl)=N\NS(=O)(=O)c1ccc(C)cc1 ?
inactive

What call does the record list for C=CC1=CSNN1 ?
inactive

What call does the record list for COc1c(Cl)c(=O)oc2ccc(Cl)cc12 ?
inactive

What call does the record list for COC1CC(OC2C(C)OC(OC3C(C)OC(OC4C(C)OC(O[C@H]5CC[C@@]6(C)C(=CC[C@]7(O)[C@@H]6C[C@@H](OC(=O)/C=C/c6ccccc6)[C@@]6(C)[C@]7(O)CC[C@@]6(O)C(C)=O)C5)CC4OC)CC3OC)CC2OC)OC(C)C1O (stereo partly drawn) ?
inactive

What call does the record list for COC(=O)C1=C(C(=O)OC)C2OC1c1cc3ccccc3cc12 ?
inactive

What call does the record list for C=CCNC1=C2C[C@@H](C)C[C@@H](OC)[C@H](OC(=O)CN(C)C)[C@H](C)/C=C(\C)[C@@H](OC(N)=O)[C@H](OC)/C=C\C=C(/C)C(=O)NC(=CC1=O)C2=O ?
active

What call does the record list for COC1=C(OC)C(=O)C(C/C=C/c2c(Cl)nc3sccn23)=C(C)C1=O ?
inactive

What call does the record list for Cc1c2ccccc2c(=O)n2c(-c3ccccn3)cccc12 ?
inactive

What call does the record list for O=C(OCCN=c1c2ccccc2ccc2ccccc12)c1ccccc1 ?
inactive

What call does the record list for CC(C)(C)[Si](C)(C)OCCCCC1CC2(S(=O)(=O)C3=CC=C=C=C3)ON1CC2S(=O)(=O)c1ccccc1 (stereo not drawn) ?
inactive

What call does the record list for NC(=O)c1cnc2sc3ccccc3n2c1=O ?
inactive

What call does the record list for CC(=O)O[C@H]1CC[C@H]2[C@@H]3CCc4cc(O)c(I)cc4[C@H]3CC[C@]12C ?
inactive

What call does the record list for COc1cccc(C2C3=C(COC3=O)Oc3cc4c(cc32)OCO4)c1 (stereo not drawn) ?
active

What call does the record list for CCC/C(Cl)=N\OC(=O)Nc1ccc(F)cc1 ?
inactive

What call does the record list for Oc1ccc(-c2nc3ccc(Cl)cc3s2)cc1 ?
inactive

What call does the record list for Cc1ccc(C2C(Cl)C(=O)N2n2cnc3ccccc3c2=O)cc1 (stereo not drawn) ?
inactive

What call does the record list for Nc1nc2c(ncn2CC2CCC(CO)C2)c(=O)[nH]1 (stereo not drawn) ?
inactive

What call does the record list for O=C(NC(=S)Nc1ccc2c(c1)Sc1ccccc1O2)c1ccccc1 ?
inactive

What call does the record list for CC1OC(OCC2OC(Oc3c(-c4ccc(O)cc4)oc4cc(O)cc(O)c4c3=O)C(OC3OC(C)C(O)C(O)C3O)C(O)C2O)C(O)C(O)C1O (stereo not drawn) ?
inactive

What call does the record list for CCOC(=O)C(NC(=O)c1ccccc1)(Nc1cc(C)on1)C(F)(F)F (stereo not drawn) ?
inactive

What call does the record list for O=C(Nc1ccccc1)c1cccc([N+](=O)[O-])c1 ?
inactive

----------
Test system: OVCAR-3
PROCEDURE TEXT: NCI tumour cell line growth inhibition, 48 h
The source made the active and inactive calls. Cut-off read from the data, not from the text of the source: active = GI50 up to about 1.1 µM and inactive = higher. Starred links: 1 amine or outer side, 2 acyl side, 3 side chain; linkers in the order of their positions; H or OH if unused. Positions of bridges follow the written chain, without caps; N, C: chain ends. Non-standard residues stand in square brackets, D forms with d. Residues, ends and D or L forms follow the SMILES beside them. Chains are numbered I, II in the order given. Actinocin(1to9) = Cc1c2oc3c(C)ccc(C(=O)[*:2])c3nc-2c(C(=O)[*:1])c(N)c1=O; NMeV = CN[CH](C(=O)O)C(C)C; Sar = CNCC(=O)O
Please provide measured GI50 for the entries that follow.

Item: CCC(C)C1NC(=O)C(NC(=O)c2c3nc4c(C(=O)NC5C(=O)NC(C(C)CC)C(=O)N6CCCC6C(=O)N(C)CC(=O)N(C)C(C(C)C)C(=O)OC5C)ccc(C)c4oc-3c(C)c(=O)c2N)C(C)OC(=O)C(C(C)C)N(C)C(=O)CN(C)C(=O)C2CCCN2C1=O (centres undefined) (I: TIP[Sar][NMeV] / II: TIP[Sar][NMeV]; ester I:1-I:C, II:1-II:C; linker I:N-II:N via Actinocin(1to9); configuration not given here) Test system: OVCAR-3 Read-out: GI50 Value: ?
0.00184 µM (active)

Item: O=c1n(-c2ccccc2)c(=O)n2c(-c3ccccc3)c(-c3ccccc3)n12 Test system: OVCAR-3 Read-out: GI50 Value: ?
> 100 µM (inactive)

Item: CCn1c2ccccc2c2ccc3c(c21)C(=O)C=CC3=O Test system: OVCAR-3 Read-out: GI50 Value: ?
13.5 µM (inactive)

Item: O=C(O)c1cc2c3ccccc3nc-2c[nH]1 Test system: OVCAR-3 Read-out: GI50 Value: ?
> 100 µM (inactive)

Item: CN(CC(=O)O)Cc1c(O)c(Cl)cc(Cl)c1Cl Test system: OVCAR-3 Read-out: GI50 Value: ?
4.07 µM (inactive)

Item: O=C(/C=C/c1ccccc1)c1cc(Br)ccc1O Test system: OVCAR-3 Read-out: GI50 Value: ?
18 µM (inactive)

Item: CC(C)=CCC[C@@H](C)c1c2nc3ccccc3sc-2c(C)c(=O)c1O Test system: OVCAR-3 Read-out: GI50 Value: ?
9.35 µM (inactive)

Item: CNC(=O)N(CCC#N)CCCN(C(=O)NC)c1ccccc1 Test system: OVCAR-3 Read-out: GI50 Value: ?
> 100 µM (inactive)

Item: C[C@H](CO)C1=CC(C#C[Si](C)(C)C)N(C(=O)Oc2ccccc2)c2ccccc21 (some centres undefined) Test system: OVCAR-3 Read-out: GI50 Value: ?
3.93 µM (inactive)

Item: CC1(C)CN=C(Nc2cccc(C(F)(F)F)c2)S1 Test system: OVCAR-3 Read-out: GI50 Value: ?
> 100 µM (inactive)

Item: Cc1cn2c(/C=N/NC(=N)N)c(-c3ccc([N+](=O)[O-])cc3)nc2s1 Test system: OVCAR-3 Read-out: GI50 Value: ?
1.65 µM (inactive)

Item: Cc1ccc(-c2cs/c(=N\c3c(C)n(C)n(-c4ccccc4)c3=O)n2CCO)cc1 Test system: OVCAR-3 Read-out: GI50 Value: ?
> 100 µM (inactive)

Item: C=C(C)CNCCN Test system: OVCAR-3 Read-out: GI50 Value: ?
> 100 µM (inactive)

Item: Cc1ccc(CSC(=N)Nc2ccccc2)cc1C Test system: OVCAR-3 Read-out: GI50 Value: ?
19.3 µM (inactive)
